Cited source for all entries: patent US9617267B2

# target-desc: B-Raf (Homo sapiens (Human))
# Sequence (P15056 whole entry): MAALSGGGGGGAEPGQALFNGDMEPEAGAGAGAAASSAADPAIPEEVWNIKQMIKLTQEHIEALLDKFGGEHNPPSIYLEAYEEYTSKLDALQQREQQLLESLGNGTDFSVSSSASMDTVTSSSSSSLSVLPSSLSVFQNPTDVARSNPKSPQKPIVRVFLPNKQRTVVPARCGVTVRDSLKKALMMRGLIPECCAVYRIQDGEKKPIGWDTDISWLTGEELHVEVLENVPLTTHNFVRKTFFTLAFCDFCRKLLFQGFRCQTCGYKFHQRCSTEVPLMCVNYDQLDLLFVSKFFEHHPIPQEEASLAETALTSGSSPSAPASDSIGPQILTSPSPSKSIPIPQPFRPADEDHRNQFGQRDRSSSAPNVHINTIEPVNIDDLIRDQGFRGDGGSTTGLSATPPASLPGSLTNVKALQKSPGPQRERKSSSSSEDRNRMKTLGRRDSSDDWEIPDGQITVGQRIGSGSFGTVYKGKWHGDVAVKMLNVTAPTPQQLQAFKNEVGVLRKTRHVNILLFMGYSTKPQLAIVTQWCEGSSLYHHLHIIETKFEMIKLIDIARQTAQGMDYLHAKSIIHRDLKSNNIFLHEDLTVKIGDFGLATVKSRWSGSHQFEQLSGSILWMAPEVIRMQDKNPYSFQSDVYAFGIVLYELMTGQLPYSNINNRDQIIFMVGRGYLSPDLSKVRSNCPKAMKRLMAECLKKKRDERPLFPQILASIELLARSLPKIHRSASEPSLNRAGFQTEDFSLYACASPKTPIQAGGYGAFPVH
# test-method-notes: B-Raf kinase activity biochemical assay (AlphaScreen, biotin-MEK1 phosphorylation)
# condition-info: B-Raf
Answer each item with its documented IC50.

molecule	target-desc	IC50
O=C(c1c(F)ccc(NS(=O)(=O)c2ccc(C(F)(F)F)cc2)c1F)c1c[nH]c2ncnc(NC3CCOC3)c12 (stereo not shown) [P-1054]	B-Raf (Homo sapiens (Human))	< 0.1 µM
CCCS(=O)(=O)Nc1ccc(F)c(C(=O)c2c[nH]c3ncnc(NC4CCOCC4)c23)c1F [P-1047]	B-Raf (Homo sapiens (Human))	< 0.1 µM
CCCS(=O)(=O)Nc1ccc(F)c(C(=O)c2c[nH]c3ncc(C)c(Cl)c23)c1F [P-2001]	B-Raf (Homo sapiens (Human))	< 0.1 µM
CCCS(=O)(=O)Nc1ccc(F)c(C(=O)c2c[nH]c3ncc(C#N)c(Cl)c23)c1F [P-2004]	B-Raf (Homo sapiens (Human))	< 0.1 µM
CCCS(=O)(=O)Nc1ccc(F)c(C(=O)c2c[nH]c3ncnc(O)c23)c1F [P-1022]	B-Raf (Homo sapiens (Human))	> 0.1 µM

Each molecule below has a recorded value; state its IC50.
1. CCCS(=O)(=O)Nc1ccc(F)c(C(=O)c2c[nH]c3ncc(Cl)c(C)c23)c1F [P-2008]
2. CCCc1ccc(S(=O)(=O)Nc2ccc(F)c(C(=O)c3c[nH]c4ncnc(OCC)c34)c2F)cc1 [P-1038]
3. O=C(c1c(F)ccc(NS(=O)(=O)c2ccc(C(F)(F)F)cc2)c1F)c1c[nH]c2ncnc(Nc3ccccc3)c12 [P-1037]
4. CCCNc1ncnc2[nH]cc(C(=O)c3c(F)ccc(NS(=O)(=O)c4ccc(C(F)(F)F)cc4)c3F)c12 [P-1032]
5. O=C(c1c(F)ccc(NS(=O)(=O)c2ccc(C(F)(F)F)cc2)c1F)c1c[nH]c2ncnc(N3CCCC3)c12 [P-1061]
6. CCCc1ccc(S(=O)(=O)Nc2ccc(F)c(C(=O)c3c[nH]c4ncnc(NC(C)C)c34)c2F)cc1 [P-1055]
7. COc1ncnc2[nH]cc(C(=O)c3c(F)ccc(NS(=O)(=O)c4cc(C)cc(C)c4)c3F)c12 [P-1025]
8. N#Cc1c(Cl)cnc2[nH]cc(C(=O)c3c(F)ccc(NS(=O)(=O)c4ccc(C(F)(F)F)cc4)c3F)c12 [P-2010]

< 0.1 µM
< 0.1 µM
< 0.1 µM
< 0.1 µM
> 0.1 µM
< 0.1 µM
> 0.1 µM
< 0.1 µM

====

# Test system: B-Raf
# test-method-notes: B-Raf kinase activity biochemical assay (AlphaScreen, biotin-MEK1 phosphorylation)
# condition-info: ratio of IC50 B-Raf / c-Raf-1
Answer each item with its documented Biochemical activity ratio B/C.

Take a look at these entries with their results.
query-smiles	target-desc	measured-property	measured-value
CCCNc1ncnc2[nH]cc(C(=O)c3c(F)ccc(NS(=O)(=O)c4ccc(C(F)(F)F)cc4)c3F)c12	B-Raf	Biochemical activity ratio B/C	>10
Cc1ncnc2[nH]cc(C(=O)c3c(F)ccc(NS(=O)(=O)c4ccc(C(C)C)cc4)c3F)c12	B-Raf	Biochemical activity ratio B/C	>10
O=C(c1c(F)ccc(NS(=O)(=O)c2ccc(C(F)(F)F)cc2)c1F)c1c[nH]c2ncnc(OC3CCOCC3)c12	B-Raf	Biochemical activity ratio B/C	>10
CCCc1ccc(S(=O)(=O)Nc2ccc(F)c(C(=O)c3c[nH]c4ncnc(O)c34)c2F)cc1	B-Raf	Biochemical activity ratio B/C	0.1-10
CCCc1ccc(S(=O)(=O)Nc2ccc(F)c(C(=O)c3c[nH]c4ncnc(NC5CCOCC5)c34)c2F)cc1	B-Raf	Biochemical activity ratio B/C	>10

Count: 3. Required value per item: Biochemical activity ratio B/C.
1. Cc1ncnc2[nH]cc(C(=O)c3c(F)ccc(NS(=O)(=O)CC(C)C)c3F)c12
2. CCn1cc(Nc2ncnc3[nH]cc(C(=O)c4c(F)ccc(NS(=O)(=O)c5ccc(C(F)(F)F)cc5)c4F)c23)cn1
3. CCCS(=O)(=O)Nc1ccc(F)c(C(=O)c2c[nH]c3ncc(OC)c(Cl)c23)c1F

1: >10; 2: >10; 3: 0.1-10
